Taken from patent US20140187771A1.

- protocol.description: Hygroscopicity at room temperature (weight gain and visual phase transition after 24 hours at controlled RH)
- Type: physicochemical
- protocol.conditions: spray dried salts, 75% RH
# cutoff 8% applies to Weight gain at 75% (%); >= gives 1.0, < gives 0.0

molecule	assigned.category
CC(C)c1nc(CN(C)C(=O)NC(CCN2CCOCC2)C(=O)NC(CCC(Cc2ccccc2)NC(=O)OCc2cncs2)Cc2ccccc2)cs1.O=C(O)c1ccc2ccccc2c1O (centres unmarked) [xinafoate]	0.0
CC(C)c1nc(CN(C)C(=O)N[C@@H](CCN2CCOCC2)C(=O)N[C@H](CC[C@H](Cc2ccccc2)NC(=O)OCc2cncs2)Cc2ccccc2)cs1.O=C(O)c1cc(O)ccc1O [gentisate]	0.0
CC(C)c1nc(CN(C)C(=O)N[C@@H](CCN2CCOCC2)C(=O)N[C@H](CC[C@H](Cc2ccccc2)NC(=O)OCc2cncs2)Cc2ccccc2)cs1.O=C1NS(=O)(=O)c2ccccc21 [saccharinate]	0.0
CC(C)c1nc(CN(C)C(=O)N[C@@H](CCN2CCOCC2)C(=O)N[C@H](CC[C@H](Cc2ccccc2)NC(=O)OCc2cncs2)Cc2ccccc2)cs1.Cl [hydrochloride]	1.0
